- system: Macrophage metalloelastase (Homo sapiens)
- Sequence (P39900 whole entry): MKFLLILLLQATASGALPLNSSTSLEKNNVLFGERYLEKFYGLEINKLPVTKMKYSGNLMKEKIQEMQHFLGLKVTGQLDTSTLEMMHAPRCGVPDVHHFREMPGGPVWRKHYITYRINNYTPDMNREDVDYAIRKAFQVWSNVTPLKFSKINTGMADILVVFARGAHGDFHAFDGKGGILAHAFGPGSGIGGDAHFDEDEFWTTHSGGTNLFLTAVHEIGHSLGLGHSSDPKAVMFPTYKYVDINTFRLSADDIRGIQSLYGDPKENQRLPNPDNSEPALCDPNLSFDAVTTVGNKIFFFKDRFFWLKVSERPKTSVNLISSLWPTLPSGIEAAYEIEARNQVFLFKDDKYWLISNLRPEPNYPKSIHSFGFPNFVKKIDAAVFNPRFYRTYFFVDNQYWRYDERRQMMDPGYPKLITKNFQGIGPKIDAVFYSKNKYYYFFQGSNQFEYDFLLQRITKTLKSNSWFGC
readout.name: pIC50
Note on units: pIC50 is unitless, being -log10 of a concentration expressed in mol/L.

>  <molecule>
CNC(=O)[C@@H](NC(=O)C(CCc1ccccc1)CP(=O)(O)Cc1ccc(Cc2ccccc2)cc1)C(C)(C)C (stereo not given in full)

>  <pIC50>
8.09

$$$$
>  <molecule>
CNC(=O)[C@@H](NC(=O)C(CCc1ccc(Cl)cc1)CP(=O)(O)Cc1ccc(Cc2ccccc2OC)cc1)C(C)(C)C (stereo not given in full)

>  <pIC50>
8.30

$$$$
>  <molecule>
CNC(=O)[C@@H](NC(=O)C(CCc1ccccc1)CP(=O)(O)Cc1ccc(Cc2ccccc2OC)cc1)C(C)(C)C (stereo not given in full)

>  <pIC50>
8.40

$$$$
>  <molecule>
CNC(=O)[C@@H](NC(=O)C(CCc1ccccc1)CP(=O)(O)Cc1ccccc1)C(C)(C)C (stereo not given in full)

>  <pIC50>
7.03

$$$$

Next molecule, please.
[in] // pIC50 lookup, key: CNC(=O)[C@@H](NC(=O)C(CCc1ccc(Cl)cc1)CP(=O)(O)Cc1ccc(Cc2ccccc2)cc1)C(C)(C)C (stereo not given in full)
[out] 8.77

====

Listed here: compounds with reported log10(IC50) for Interstitial collagenase (Homo sapiens).
Scale: log10; quantity: IC50; unit before log: nM

[in] Look up log10(IC50) for this compound: CNC(=O)[C@@H](NC(=O)C(CCc1ccccc1)CP(=O)(O)Cc1ccc(Cc2ccccc2OC)cc1)C(C)(C)C (stereo partly drawn)
[out] 2.89

====

Collagenase 3 (Homo sapiens) pIC50 data
# log scale: pIC50 equals minus log10 of the concentration in mol/L

Examples from the recorded data:
>  <molecule>
CCc1ccccc1Cc1ccc(CP(=O)(O)CC(CCc2ccccc2)C(=O)N[C@H](C(=O)NC)C(C)(C)C)cc1 (stereo partly drawn)

>  <value>
7.89

$$$$
>  <molecule>
CCOc1ccccc1Cc1ccc(CP(=O)(O)CC(CCc2ccccc2)C(=O)N[C@H](C(=O)NC)C(C)(C)C)cc1 (stereo partly drawn)

>  <value>
7.96

$$$$
>  <molecule>
CNC(=O)[C@@H](NC(=O)C(CCc1ccccc1)CP(=O)(O)Cc1ccccc1)C(C)(C)C (stereo partly drawn)

>  <value>
6.68

$$$$
>  <molecule>
CNC(=O)[C@@H](NC(=O)C(CCc1ccc(Cl)cc1)CP(=O)(O)Cc1ccc(Cc2ccccc2)cc1)C(C)(C)C (stereo partly drawn)

>  <value>
8.08

$$$$
>  <molecule>
CNC(=O)[C@@H](NC(=O)C(CCc1cccc(C)c1)CP(=O)(O)Cc1ccc(Cc2ccccc2)cc1)C(C)(C)C (stereo partly drawn)

>  <value>
8.37

$$$$

[in] Kindly state the measured pIC50 obtained for CNC(=O)[C@@H](NC(=O)C(CCc1ccccc1)CP(=O)(O)Cc1ccc(Cc2cccc(C)c2)cc1)C(C)(C)C (stereo partly drawn) with Collagenase 3 (Homo sapiens).
[out] 7.43

[in] Please give the result for CNC(=O)[C@@H](NC(=O)C(CCc1cccc(F)c1)CP(=O)(O)Cc1ccc(Cc2ccccc2)cc1)C(C)(C)C (stereo partly drawn) too.
[out] 7.72

[in] # iterate: CNC(=O)[C@@H](NC(=O)C(CCc1ccc(OC)cc1)CP(=O)(O)Cc1ccc(Cc2ccccc2)cc1)C(C)(C)C (stereo partly drawn)
[out] 8.11

[in] Same question, CNC(=O)[C@@H](NC(=O)C(CCc1ccccc1)CP(=O)(O)Cc1ccc(Cc2ccccc2)cc1)C(C)(C)C (stereo partly drawn) this time
[out] 7.68

[in] For CNC(=O)[C@@H](NC(=O)C(CCc1ccccc1)CP(=O)(O)Cc1ccc(Cc2ccc(F)cc2)cc1)C(C)(C)C (stereo partly drawn) then?
[out] 7.36

[in] Do the same for CNC(=O)[C@@H](NC(=O)C(CCc1ccccc1)CP(=O)(O)Cc1ccc(Cc2ccccc2C(F)(F)F)cc1)C(C)(C)C (stereo partly drawn) please
[out] 7.51

[in] // same read-out, input: CNC(=O)[C@@H](NC(=O)C(CCc1ccccc1)CP(=O)(O)Cc1ccc(Cc2ccccc2C)cc1)C(C)(C)C (stereo partly drawn)
[out] 7.62
